Tested on: NCI-H719 tumor spheroids, viability
Test: Anticancer human tumor NCI-H719 cell line growth inhibition
Settings: second compound 100 µM; first compound 3.16 µM; hits give low values; spheroids with HUVEC and MSC
Value type: viability, T/C (%)

* COc1cc(C)[nH]c(=O)c1CN1CCc2c(Cl)cc(C(OC)C3COC3)c(Cl)c2C1=O (stereo unspecified) + Cn1nnc2c(C(N)=O)ncn2c1=O | 115
* CC(C)n1c(=O)n(C)c2cnc3cc(F)c(-c4ccc(OCCCN5CCCCC5)nc4)cc3c21 + Cn1nnc2c(C(N)=O)ncn2c1=O | 82.5
* Cc1cc(C)c(CNC(=O)c2cc(-c3ccc(CN4CCOCC4)cc3)cc3c2cnn3C2CCCC2)c(=O)[nH]1 + Cn1nnc2c(C(N)=O)ncn2c1=O | 107
* CC1COCCN1c1cc(-c2ccnn2C)c2ccnc(-c3ccn[nH]3)c2n1 (stereo unspecified) + Cn1nnc2c(C(N)=O)ncn2c1=O | 17.8
* [2H]c1nc(C)nc([2H])c1-c1cc(NC[C@@H](C)c2cccc3c(C(=O)NC)ccnc23)ncn1 + Cn1nnc2c(C(N)=O)ncn2c1=O | 68.2
* COc1ccc([C@@H](O)c2cc(-c3ncnc4cc(N5CCOCC5)ccc34)c(F)cc2Cl)nn1 + Cn1nnc2c(C(N)=O)ncn2c1=O | 34

====

Tested on: NCI-H719 tumor spheroids, viability
Experiment: Anticancer human tumor NCI-H719 cell line growth inhibition
Conditions: second compound 10 µM; first compound 0.316 µM; hits give low values; spheroids with HUVEC and MSC
Simple rule here: viability, T/C less than 90% is label 1, otherwise label 0.

• COc1ccc([C@@H](O)c2cc(-c3ncnc4cc(N5CCOCC5)ccc34)c(F)cc2Cl)nn1 + Cn1nnc2c(C(N)=O)ncn2c1=O = label 1
• CC1COCCN1c1cc(-c2ccnn2C)c2ccnc(-c3ccn[nH]3)c2n1 (stereo unspecified) + Cn1nnc2c(C(N)=O)ncn2c1=O = label 1
• Cc1cc(C)c(CNC(=O)c2cc(-c3ccc(CN4CCOCC4)cc3)cc3c2cnn3C2CCCC2)c(=O)[nH]1 + Cn1nnc2c(C(N)=O)ncn2c1=O = label 0
• COc1cc(C)[nH]c(=O)c1CN1CCc2c(Cl)cc(C(OC)C3COC3)c(Cl)c2C1=O (stereo unspecified) + Cn1nnc2c(C(N)=O)ncn2c1=O = label 0
• CC(C)n1c(=O)n(C)c2cnc3cc(F)c(-c4ccc(OCCCN5CCCCC5)nc4)cc3c21 + Cn1nnc2c(C(N)=O)ncn2c1=O = label 0

====

Tested on: NCI-H719 tumor spheroids, viability
Test: Anticancer human tumor NCI-H719 cell line growth inhibition; active = viability on the fitted dose curve at most 10% of control; inactive = the rest;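 further: spheroids exposed to compounds for seven days; percent viability relative to DMSO vehicle control as 100%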
Settings: second compound 0.003 µM; first compound 10 µM; spheroids with HUVEC and MSC
Outcomes: 1 (yes) for active, 0 (no) for inactive

• COc1cc(C)[nH]c(=O)c1CN1CCc2c(Cl)cc(C(OC)C3COC3)c(Cl)c2C1=O (centres undefined) + COc1cc2c(cc1O)CCNC21CSC2c3c(OC(C)=O)c(C)c4c(c3C(COC1=O)N1C(O)C3Cc5cc(C)c(OC)c(O)c5C(C21)N3C)OCO4 = 1 (yes)
• Cc1cc(C)c(CNC(=O)c2cc(-c3ccc(CN4CCOCC4)cc3)cc3c2cnn3C2CCCC2)c(=O)[nH]1 + COc1cc2c(cc1O)CCNC21CSC2c3c(OC(C)=O)c(C)c4c(c3C(COC1=O)N1C(O)C3Cc5cc(C)c(OC)c(O)c5C(C21)N3C)OCO4 = 1 (yes)
• [2H]c1nc(C)nc([2H])c1-c1cc(NC[C@@H](C)c2cccc3c(C(=O)NC)ccnc23)ncn1 + CC[C@@]1(O)C(=O)OCc2c1cc1n(c2=O)Cc2cc3c(CN(C)C)c(O)ccc3nc2-1 = 0 (no)
• Cc1cc(C)c(CNC(=O)c2cc(-c3ccc(CN4CCOCC4)cc3)cc3c2cnn3C2CCCC2)c(=O)[nH]1 + CC[C@@]1(O)C(=O)OCc2c1cc1n(c2=O)Cc2cc3c(CN(C)C)c(O)ccc3nc2-1 = 0 (no)
• CC(C)n1c(=O)n(C)c2cnc3cc(F)c(-c4ccc(OCCCN5CCCCC5)nc4)cc3c21 + COc1cc2c(cc1O)CCNC21CSC2c3c(OC(C)=O)c(C)c4c(c3C(COC1=O)N1C(O)C3Cc5cc(C)c(OC)c(O)c5C(C21)N3C)OCO4 = 1 (yes)
• COc1cc(C)[nH]c(=O)c1CN1CCc2c(Cl)cc(C(OC)C3COC3)c(Cl)c2C1=O (centres undefined) + CC[C@@]1(O)C(=O)OCc2c1cc1n(c2=O)Cc2cc3c(CN(C)C)c(O)ccc3nc2-1 = 0 (no)
• COc1ccc([C@@H](O)c2cc(-c3ncnc4cc(N5CCOCC5)ccc34)c(F)cc2Cl)nn1 + COc1cc2c(cc1O)CCNC21CSC2c3c(OC(C)=O)c(C)c4c(c3C(COC1=O)N1C(O)C3Cc5cc(C)c(OC)c(O)c5C(C21)N3C)OCO4 = 1 (yes)
• CC1COCCN1c1cc(-c2ccnn2C)c2ccnc(-c3ccn[nH]3)c2n1 (centres undefined) + COc1cc2c(cc1O)CCNC21CSC2c3c(OC(C)=O)c(C)c4c(c3C(COC1=O)N1C(O)C3Cc5cc(C)c(OC)c(O)c5C(C21)N3C)OCO4 = 1 (yes)
• COc1ccc([C@@H](O)c2cc(-c3ncnc4cc(N5CCOCC5)ccc34)c(F)cc2Cl)nn1 + CC[C@@]1(O)C(=O)OCc2c1cc1n(c2=O)Cc2cc3c(CN(C)C)c(O)ccc3nc2-1 = 0 (no)

====

Entries annotated with measured viability, T/C
Tested on: NCI-H719 tumor spheroids, viability
Assay: Anticancer human tumor NCI-H719 cell line growth inhibition;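 further: spheroids exposed to compounds for seven days; percent viability relative to DMSO vehicle control as 100%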
Conditions: second compound 94.9 pM; first compound 3.16 µM; hits give low values; spheroids with HUVEC and MSC
Value type: viability, T/C (%)

• COc1cc(C)[nH]c(=O)c1CN1CCc2c(Cl)cc(C(OC)C3COC3)c(Cl)c2C1=O (configuration not stated) + COc1cc2c(cc1O)CCNC21CSC2c3c(OC(C)=O)c(C)c4c(c3C(COC1=O)N1C(O)C3Cc5cc(C)c(OC)c(O)c5C(C21)N3C)OCO4 = 32.4
• Cc1cc(C)c(CNC(=O)c2cc(-c3ccc(CN4CCOCC4)cc3)cc3c2cnn3C2CCCC2)c(=O)[nH]1 + COc1cc2c(cc1O)CCNC21CSC2c3c(OC(C)=O)c(C)c4c(c3C(COC1=O)N1C(O)C3Cc5cc(C)c(OC)c(O)c5C(C21)N3C)OCO4 = 40.4

====

Test system: NCI-H719 tumor spheroids, viability
Test: Anticancer human tumor NCI-H719 cell line growth inhibition;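 further: spheroids exposed to compounds for seven days; percent viability relative to DMSO vehicle control as 100%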
Settings: second compound 100 µM; first compound 1 µM; hits give low values; spheroids with HUVEC and MSC
viability, T/C reference
Value type: viability, T/C (%)

• Cc1cc(C)c(CNC(=O)c2cc(-c3ccc(CN4CCOCC4)cc3)cc3c2cnn3C2CCCC2)c(=O)[nH]1 + Cn1nnc2c(C(N)=O)ncn2c1=O = 103
• [2H]c1nc(C)nc([2H])c1-c1cc(NC[C@@H](C)c2cccc3c(C(=O)NC)ccnc23)ncn1 + Cn1nnc2c(C(N)=O)ncn2c1=O = 70.3
• COc1ccc([C@@H](O)c2cc(-c3ncnc4cc(N5CCOCC5)ccc34)c(F)cc2Cl)nn1 + Cn1nnc2c(C(N)=O)ncn2c1=O = 36.5
• COc1cc(C)[nH]c(=O)c1CN1CCc2c(Cl)cc(C(OC)C3COC3)c(Cl)c2C1=O (stereo unspecified) + Cn1nnc2c(C(N)=O)ncn2c1=O = 109
• CC(C)n1c(=O)n(C)c2cnc3cc(F)c(-c4ccc(OCCCN5CCCCC5)nc4)cc3c21 + Cn1nnc2c(C(N)=O)ncn2c1=O = 74.6
• CC1COCCN1c1cc(-c2ccnn2C)c2ccnc(-c3ccn[nH]3)c2n1 (stereo unspecified) + Cn1nnc2c(C(N)=O)ncn2c1=O = 5.42

====

In this section we review reported viability, T/C values for a set of compounds.
Test system: NCI-H719 tumor spheroids, viability
Assay: Anticancer human tumor NCI-H719 cell line growth inhibition;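 further: spheroids exposed to compounds for seven days; percent viability relative to DMSO vehicle control as 100%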
Conditions: second compound 1 µM; first compound 0.949 µM; hits give low values; spheroids with HUVEC and MSC
Value type: viability, T/C (%)

• Cc1sc2c(c1C)C(c1ccc(Cl)cc1)=NC(CC(=O)Nc1ccc(O)cc1)c1nnc(C)n1-2 (centres undefined) + Cn1nnc2c(C(N)=O)ncn2c1=O = 4.49
• CNCc1ccc(-c2cc(-c3nc(-c4ccc(S(=O)(=O)C(C)C)cc4)cnc3N)on2)cc1 + Cn1nnc2c(C(N)=O)ncn2c1=O = 8.27
• Cn1ncnc1[C@H]1c2n[nH]c(=O)c3cc(F)cc(c23)N[C@@H]1c1ccc(F)cc1 + Cn1nnc2c(C(N)=O)ncn2c1=O = 6.65
• O=C(c1cc(Cc2n[nH]c(=O)c3ccccc23)ccc1F)N1CCN(C(=O)C2CC2)CC1 + Cn1nnc2c(C(N)=O)ncn2c1=O = 56.1
